Molecular target: T1, in-line fusion protein of human IL-36R extracellular domain and IL1RAcP extracellular domain expressed with … (human; mouse, UniProt Q9HB29 20-337; Q9NPH3 21-359, limits assumed)
T1 construct: not shown: mouse IgG2a Fc
T1 sequence (looked up): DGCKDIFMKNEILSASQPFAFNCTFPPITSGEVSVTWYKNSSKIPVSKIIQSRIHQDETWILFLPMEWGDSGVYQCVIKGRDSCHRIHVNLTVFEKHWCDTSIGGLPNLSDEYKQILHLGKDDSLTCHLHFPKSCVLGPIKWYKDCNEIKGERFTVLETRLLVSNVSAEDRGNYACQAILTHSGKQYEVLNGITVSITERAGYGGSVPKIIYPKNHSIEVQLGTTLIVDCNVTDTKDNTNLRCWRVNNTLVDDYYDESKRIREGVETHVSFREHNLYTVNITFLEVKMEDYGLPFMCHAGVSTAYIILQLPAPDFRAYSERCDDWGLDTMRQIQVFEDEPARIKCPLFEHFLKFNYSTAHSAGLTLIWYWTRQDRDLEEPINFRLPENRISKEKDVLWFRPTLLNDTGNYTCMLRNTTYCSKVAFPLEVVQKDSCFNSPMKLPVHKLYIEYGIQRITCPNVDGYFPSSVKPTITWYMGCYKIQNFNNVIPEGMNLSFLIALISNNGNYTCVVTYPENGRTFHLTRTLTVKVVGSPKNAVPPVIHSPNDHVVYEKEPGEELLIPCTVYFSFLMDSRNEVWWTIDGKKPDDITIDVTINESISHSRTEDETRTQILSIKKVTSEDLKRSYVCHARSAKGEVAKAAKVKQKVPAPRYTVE
Assay: SPR Biacore 4000, mAb captured on anti-hFc, 37C
Recorded measurements of kon, one per entry
Please respond with the number in M⁻¹ s⁻¹ and leave the unit unwritten.

INSERT INTO results (binder, readout_type, unit_string, numeric_value) VALUES
  ('H4H14708P2 (antibody, human IgG4 S228P, kappa, V domains shown, Fully human anti-IL-36R antibody) VH: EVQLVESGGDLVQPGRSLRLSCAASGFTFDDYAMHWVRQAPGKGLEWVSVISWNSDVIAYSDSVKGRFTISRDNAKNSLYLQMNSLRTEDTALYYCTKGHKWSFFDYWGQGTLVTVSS VL: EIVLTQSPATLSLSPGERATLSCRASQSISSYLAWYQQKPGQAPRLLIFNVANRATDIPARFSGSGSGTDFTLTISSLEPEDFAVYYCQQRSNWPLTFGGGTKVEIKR', 'kon', 'M⁻¹ s⁻¹', 385000);

Prompt: Which kon value is on record for H4H14728P (antibody, human IgG4 S228P, kappa, V domains shown, Fully human anti-IL-36R antibody) VH: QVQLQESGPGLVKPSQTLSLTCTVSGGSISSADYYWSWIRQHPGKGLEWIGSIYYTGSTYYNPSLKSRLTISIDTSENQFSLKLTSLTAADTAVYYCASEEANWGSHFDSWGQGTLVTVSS VL: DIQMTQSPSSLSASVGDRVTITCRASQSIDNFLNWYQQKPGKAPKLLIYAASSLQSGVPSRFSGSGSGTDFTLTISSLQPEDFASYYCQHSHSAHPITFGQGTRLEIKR ?
Response: 48500
